- Tested on: SK-OV-3 ovarian
- testSummary: NCI tumour cell line growth inhibition, 48 h
quantityKind: TGI

compound: c1ccc2c(c1)[O][Sn][O]2
observedResult: > 150 µg/mL
--
compound: COc1cccc(Nc2nc(NS(=O)(=O)c3cc(C)c(Cl)cc3S)n[nH]2)c1
observedResult: > 100 µM
--
compound: CC1=C(C(=O)CC(=O)C(=O)Nc2ccccc2C)Sc2ccccc2N1
observedResult: > 100 µM
--
compound: Cc1cc2c(cc1C)[n+](=O)c(C(=O)/C=C/c1ccccc1[N+](=O)[O-])c(C)n2[O-]
observedResult: > 68.6 µM
--
compound: CCN(CC)Cc1cc(Nc2cc(C(F)(F)F)c(C#N)c3nc4ccccc4n23)ccc1O
observedResult: 8.59 µM
--
compound: Cc1ccc(NC2=CC(=O)C(=O)c3ccccc32)c(C)c1
observedResult: 27.9 µM
--
compound: O=C1CC(=O)NC(=NN2C(=O)/C(=C/c3ccc(Cl)cc3)N=C2c2ccccc2)N1
observedResult: 51.8 µM
--
compound: CSC1(Cc2ccccn2)C(=O)Nc2cccc([N+](=O)[O-])c21 (stereo unspecified)
observedResult: > 100 µM
--
compound: CC1(C)OC2OC(COC(=O)C(c3ccccc3)c3ccccc3)C3OC(C)(C)OC3C2O1 (stereo unspecified)
observedResult: > 100 µM
--
compound: CC1(C)CC(O)CC(C)(C)N1.CC1(C)CC(O)CC(C)(C)N1.CC1(C)CC(O)CC(C)(C)N1.CC1(C)CC(O)CC(C)(C)N1.Cl.[Ti]
observedResult: > 100 µM
--
compound: CCN(CC)CCS(=O)(=O)CCNc1ccnc2cc(Cl)ccc12
observedResult: 70.2 µM

====

- Test system: NCI/ADR-RES ovarian
- testSummary: NCI tumour cell line growth inhibition, 48 h
Listed here: items and their measured GI50.

compound: Nc1n[nH]c2ccc([C@@H]3Nc4c(F)cc5[nH]ncc5c4[C@H]4C5CCC(C5)[C@@H]34)cc12 (some centres undefined)
testedTarget: NCI/ADR-RES ovarian
GI50: 0.234 µM
--
compound: O=S(=O)(NCCCNc1nccc(-c2c(-c3cccc(F)c3)nc3occn23)n1)c1cccc2ccccc12
testedTarget: NCI/ADR-RES ovarian
GI50: 5.52 µM
--
compound: Cc1ccc(O)cc1Nc1ccnc2cc(-c3ccccn3)ccc12
testedTarget: NCI/ADR-RES ovarian
GI50: 4.49 µM
--
compound: Cc1ccc(C(=O)N2C/C(=C/c3ccccc3)C(=O)/C(=C/c3ccccc3)C2)cc1
testedTarget: NCI/ADR-RES ovarian
GI50: 27.7 µM
--
compound: CC1(C)N=C(N)N=C(N)N1c1ccc(OCCCCNC(=O)Nc2cccc(S(=O)(=O)F)c2)c(Cl)c1
testedTarget: NCI/ADR-RES ovarian
GI50: > 100 µM
--
compound: COC(=O)c1ccc2c(c1)C(=O)c1c-2n(CCCCl)c(=O)c2cc(OC)c(OC)cc12
testedTarget: NCI/ADR-RES ovarian
GI50: > 100 µM
--
compound: C=CC[PH+](c1ccccc1)c1ccccc1.C=CC[PH+](c1ccccc1)c1ccccc1.[Pt+2].[S-]c1ncccn1.[S-]c1ncccn1
testedTarget: NCI/ADR-RES ovarian
GI50: 22.9 µM
--
compound: O=C(Nc1nc2c(s1)CCc1c-2c(Br)n(Cc2ccccc2)c1Br)c1ccccc1
testedTarget: NCI/ADR-RES ovarian
GI50: 21 µM
--
compound: CC/C(=C(/c1ccc(/C=C/C(=O)O)cc1)c1ccc2[nH]ncc2c1)c1ccc(F)cc1Cl
testedTarget: NCI/ADR-RES ovarian
GI50: 9.08 µM
